meta.source: patent US20240025919A1

- TESTED SYSTEM: KRAS G12D (Homo sapiens (Human), UniProt P01116, G12D)
- Sequence (P01116-2 other isoform, or with tags, fused parts or gaps G12D): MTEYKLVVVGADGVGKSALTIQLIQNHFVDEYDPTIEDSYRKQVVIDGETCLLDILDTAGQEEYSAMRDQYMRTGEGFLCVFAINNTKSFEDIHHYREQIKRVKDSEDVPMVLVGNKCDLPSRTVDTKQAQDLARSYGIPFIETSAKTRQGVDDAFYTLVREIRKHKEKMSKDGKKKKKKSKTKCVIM
- ASSAY OVERVIEW: KRAS G12D LoEnz Biochemical Assay, BODIPY-GDP Exchange TR-FRET (SOS1-mediated nucleotide exchange)
- MEASUREMENT SETUP: read-out: KRas (G12D) GDP HTRF IC50
MEASURE: log10(IC50) (log10 of the value in nM)
Hi team, quick reminder: these entries are log10 of IC50 (nM).

// below: answered compounds
1) Cc1cc(N)c(F)c(-c2nc3c4c(ncnc4c2Cl)N2C[C@H]4CC[C@H](N4)[C@H]2[C@H](C)O3)c1C(F)(F)F [Compound 93] | 1.87
2) Cc1c(F)c(N)c(F)c(-c2nc3c4c(nc(OC[C@@]56CCCN5C[C@H](F)C6)nc4c2F)N2C[C@H]4CC[C@H](N4)[C@H]2[C@H](C)O3)c1Cl | -0.36
3) Cc1c(F)c(N)cc(-c2nc3c4c(nc(OC[C@@H]5CCC6CC(F)(F)CCN65)nc4c2F)N2C[C@H]4CC[C@H](N4)[C@H]2[C@H](C)O3)c1C(F)(F)F (single isomer, unassigned) [119 (isomer 2)] | -0.43
4) Cc1cc(N)c(Cl)c(-c2nc3c4c(nc(OC[C@@]56CCCN5C[C@H](F)C6)nc4c2Cl)N2C[C@H]4CC[C@H](N4)[C@H]2[C@H](C)O3)c1C(F)(F)F (single isomer, unassigned) [Compound 240 (atrop. 2)] | -0.85
5) Cc1cc(N)cc(-c2nc3c4c(nc(OC[C@@]56CCCN5CC5(CC5(F)F)C6)nc4c2F)N2C[C@H]4CC[C@H](N4)[C@H]2[C@H](C)O3)c1C(F)(F)F (some centres unmarked) | -1.15
6) Cc1c(F)c(N)cc(-c2nc3c4c(nc(OC[C@]5(CCF)CCCN5C)nc4c2F)N2C[C@H]4CC[C@H](N4)[C@H]2[C@H](C)O3)c1C(F)(F)F (single isomer, unassigned) [127 (isomer 2)] | -0.72
7) Cc1cc(N)c(F)c(-c2nc3c4c(nc(OC[C@@H]5CC[C@H]6COCCN65)nc4c2F)N2C[C@H]4CC[C@H](N4)[C@H]2[C@H](C)O3)c1Cl | 0.50
8) Cc1c(F)c(N)cc(-c2nc3c4c(nc(OC[C@@H]5CC(F)(F)CN5C)nc4c2F)N2C[C@H]4CC[C@H](N4)[C@H]2[C@H](C)O3)c1C(F)(F)F | 0.24

Sample Cc1cc(N)c(F)c(-c2nc3c4c(nc(OC[C@@H]5CC[C@H]6COCCN65)nc4c2F)N2C[C@H]4CC[C@H](N4)[C@H]2[C@H](C)O3)c1C(F)(F)F — what was its log10(IC50)?
-0.43

What about this compound? Cc1c(F)c(N)cc(-c2nc3c4c(nc(OC[C@@]56CCCN5C[C@H](F)C6)nc4c2F)N2C[C@H]4CC[C@H](N4)[C@H]2C(CF)O3)c1C(F)(F)F (some centres unmarked)
-0.24

What about this compound? Cc1c(F)c(N)cc(-c2nc3c4c(nc(OC[C@@]56C[C@H](F)CN5C[C@H](F)C6)nc4c2F)N2C[C@H]4CC[C@H](N4)[C@H]2[C@H](C)O3)c1C(F)(F)F
-0.70

====

- TESTED SYSTEM: KRAS G12D (Homo sapiens (Human), UniProt P01116, G12D)
- ASSAY OVERVIEW: KRAS G12D LoEnz Biochemical Assay, BODIPY-GDP Exchange TR-FRET (SOS1-mediated nucleotide exchange)
- MEASUREMENT SETUP: read-out: KRas (G12D) GDP HTRF IC50
Each entry below lists one item and its recorded pIC50 value.
Just so you know, pIC50 here is -log10 of the concentration in molar units; reply with that number alone.

1. Cc1c(F)c(N)cc(-c2nc3c4c(nc(OCC56CCCN5CCN(C)C6=O)nc4c2F)N2C[C@H]4CC[C@H](N4)[C@H]2[C@H](C)O3)c1C(F)(F)F (single isomer, unassigned) [137 (isomer 2)] | 8.63

Switching to the query record.
Sample Cc1nc(N)cc(-c2nc3c4c(nc(OCC5N(C)C[C@]56CC6(F)F)nc4c2F)N2C[C@H]4CC[C@H](N4)[C@H]2[C@H](C(F)(F)F)O3)c1C(F)(F)F (single isomer, unassigned) [262 (isomer 3)] — what was its pIC50?
7.39

====

- TESTED SYSTEM: KRAS WT (Homo sapiens (Human), UniProt P01116)
- Sequence (P01116-2 other isoform, or with tags, fused parts or gaps): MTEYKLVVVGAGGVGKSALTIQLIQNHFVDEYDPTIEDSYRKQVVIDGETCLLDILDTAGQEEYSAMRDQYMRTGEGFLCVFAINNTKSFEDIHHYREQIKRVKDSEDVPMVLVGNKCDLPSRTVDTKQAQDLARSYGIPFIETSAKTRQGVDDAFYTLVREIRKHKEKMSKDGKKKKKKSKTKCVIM
- ASSAY OVERVIEW: KRAS WT Biochemical Assay, BODIPY-GDP Exchange TR-FRET (Example 502; 0.06 nM KRAS WT, 15 nM GDP, 300 nM SOS1, 120-minute incubation)
- MEASUREMENT SETUP: read-out: KRas HTRF IC50
MEASURE: IC50 (nM)
Only the number, expressed in nM, is required.

// below: answered compounds
1) Cc1c(F)c(N)cc(-c2nc3c4c(nc(OC[C@@H]5[C@@H]6CCN5CCO6)nc4c2F)N2C[C@H]4CC[C@H](N4)[C@H]2[C@H](C)O3)c1C(F)(F)F | 90.8
2) Cc1c(F)c(N)cc(-c2nc3c4c(nc(OC[C@@H](F)CN5CC(CO)(CO)C5)nc4c2F)N2C[C@H]4CC[C@H](N4)[C@H]2[C@H](C)O3)c1C(F)(F)F | 114

Switching to the query record.
Sample Cc1c(F)c(N)cc(-c2nc3c4c(nc(OC[C@H]5COC[C@H]6CCCN65)nc4c2F)N2C[C@H]4CC[C@H](N4)[C@H]2[C@H](C)O3)c1C(F)(F)F (single isomer, unassigned) [121 (isomer 1)] — what was its IC50?
108

====

- TESTED SYSTEM: KRAS G12D (Homo sapiens (Human), UniProt P01116, G12D)
- ASSAY OVERVIEW: KRAS G12D LoEnz Biochemical Assay, BODIPY-GDP Exchange TR-FRET (SOS1-mediated nucleotide exchange)
- MEASUREMENT SETUP: read-out: KRas (G12D) GDP HTRF IC50
MEASURE: IC50 (nM)
Only the number, expressed in nM, is required.

Sample Cc1nc(N)c(F)c(-c2nc3c4c(nc(OC[C@@]56CCCN5C[C@H](F)C6)nc4c2F)N2C[C@H]4CC[C@H](N4)[C@H]2[C@H](C(F)(F)F)O3)c1C(F)(F)F — what was its IC50?
0.82

What about this compound? C[C@@H]1Oc2nc(-c3c(C(F)(F)F)ccc(N)c3F)c(F)c3nc(OC[C@@]45CCCN4C[C@H](F)C5)nc(c23)N2C[C@H]3CC[C@H](N3)[C@@H]12
0.57

What about this compound? Cc1cc(N)nc(-c2nc3c4c(nc(OC[C@@]56CCCN5C[C@H](F)C6)nc4c2F)N2C[C@H]4CC[C@H](N4)[C@H]2CO3)c1C(F)(F)F
0.68

What about this compound? Cc1c(F)c(N)cc(-c2nc3c4c(nc(OC[C@H]5CC[C@@H]6CN(C)C(=O)CN56)nc4c2F)N2C[C@H]4CC[C@H](N4)[C@H]2[C@H](C)O3)c1C(F)(F)F (single isomer, unassigned) [131 (isomer 4)]
1.14

====

- TESTED SYSTEM: KRAS WT (Homo sapiens (Human), UniProt P01116)
- ASSAY OVERVIEW: KRAS WT Biochemical Assay, BODIPY-GDP Exchange TR-FRET (Example 502; 0.06 nM KRAS WT, 15 nM GDP, 300 nM SOS1, 120-minute incubation)
- MEASUREMENT SETUP: read-out: KRas HTRF IC50
pIC50: −log10 of the molar value.
Records here are stratified by pIC50; strata: low-valued = under 7, mid-valued = from 7 up to 8, high-valued = 8 and over

Sample answers from the record:
1. C[C@@H]1Oc2nc(-c3cc(N)cc(F)c3C(F)(F)F)c(F)c3nc(OC[C@@]45CCCN4C[C@H](F)C5)nc(c23)N2C[C@H]3CC[C@H](N3)[C@@H]12 | high-valued
2. C[C@@H]1Oc2nc(-c3cc(N)ccc3C(C)(C)C)c(F)c3nc(OC[C@@]45CCCN4C[C@H](F)C5)nc(c23)N2C[C@H]3CC[C@H](N3)[C@@H]12 | low-valued
3. C#Cc1c(F)ccc2cc(O)cc(-c3nc4c5c(nc(OC[C@@]67CCCN6C[C@H](F)C7)nc5c3F)N3C[C@H]5CC[C@H](N5)[C@H]3CO4)c12 | high-valued
4. Cc1c(F)c(N)cc(-c2nc3c4c(nc(OC[C@H]5[C@H](C#N)CCN5C)nc4c2F)N2C[C@H]4CC[C@H](N4)[C@H]2[C@H](C)O3)c1C(F)(F)F | low-valued
5. Cc1c(F)c(N)cc(-c2nc3c4c(nc(OC[C@@H]5C[C@H]6COCCN65)nc4c2F)N2C[C@H]4CC[C@H](N4)[C@H]2[C@H](C)O3)c1C(F)(F)F (single isomer, unassigned) [159 (diast. 2)] | mid-valued

Continue with the molecule presented below.
Which category does the recorded pIC50 put Cc1c(F)c(N)cc(-c2nc3c4c(nc(OC[C@]5(CN6C[C@H]7C[C@@H]6CO7)CC5(F)F)nc4c2F)N2C[C@H]4CC[C@H](N4)[C@H]2[C@H](C)O3)c1C(F)(F)F [166 b] in?
high-valued
